Catalogue of protein stability index values
B1: VAMP4 (parent)
chain: IMALVAAILLLVIIILIVMKYRT

# Variants of: B1
# TEST: protein stability index of a GFP-peptide fusion (GPS, HEK-293T) (PSI 1-6); higher = more stable;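 also: lentivirally expressed fusions sorted by FACS into six bins by GFP to DsRed ratio, PSI derived from sequencing read proportions per bin multiplied by bin number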
# CONDITION_CONTEXT: c terminus: native
Just the number, please, no unit attached.

# annotated cases, reported protein stability index shown
{"VARIANT_SPEC": "V12M", "protein stability index": 3.03}
{"VARIANT_SPEC": "I15A", "protein stability index": 3.05}
{"VARIANT_SPEC": "V18Y", "protein stability index": 2.97}
{"VARIANT_SPEC": "M2K", "protein stability index": 2.98}
{"VARIANT_SPEC": "I17L", "protein stability index": 2.96}

Data point: `V12S` ; protein stability index = 3.17

Data point: `V18Q` ; protein stability index = 2.04

Data point: `M19C` ; protein stability index = 2.78

Data point: `A3C` ; protein stability index = 3.34

Data point: `A7L` ; protein stability index = 3.58

Data point: `I8Y` ; protein stability index = 2.26

Data point: `I17P` ; protein stability index = 2.77

Data point: `A7R` ; protein stability index = 3.36

Data point: `Y21D` ; protein stability index = 2.84

Data point: `V5M` ; protein stability index = 3.81
